Target: T1, human ASIC1 (human, UniProt P78348 1-528)
T1 sequence: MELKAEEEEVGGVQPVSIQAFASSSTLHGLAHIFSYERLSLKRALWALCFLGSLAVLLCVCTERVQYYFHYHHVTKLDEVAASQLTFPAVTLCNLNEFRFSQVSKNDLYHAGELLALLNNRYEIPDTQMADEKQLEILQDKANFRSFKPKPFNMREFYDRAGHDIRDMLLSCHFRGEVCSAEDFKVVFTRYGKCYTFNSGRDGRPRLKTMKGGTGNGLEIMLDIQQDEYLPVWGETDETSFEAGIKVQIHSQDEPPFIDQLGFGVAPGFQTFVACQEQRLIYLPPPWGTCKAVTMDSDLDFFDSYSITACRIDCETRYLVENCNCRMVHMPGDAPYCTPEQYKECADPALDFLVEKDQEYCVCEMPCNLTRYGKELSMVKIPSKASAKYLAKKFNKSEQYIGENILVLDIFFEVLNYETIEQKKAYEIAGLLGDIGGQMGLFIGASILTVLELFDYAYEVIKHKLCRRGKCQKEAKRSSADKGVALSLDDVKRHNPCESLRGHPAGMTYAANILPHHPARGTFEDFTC
Assay: cell-based or functional assay
Here the recorded FLIPR Dose Curve, pH 5.0 % Block is given for each entry.
Express the result in % but write the number alone.

Incoming: Quote FLIPR Dose Curve, pH 5.0 % Block reported for H3M6713N (antibody, V domains shown, Chimeric: human variable, mouse constant domains; H3M prefix marks the Fc, isotype not spelled out) VH: EELVLESGGGLVQPGGSLRLSCAASGFMFSTYAMSWVRQAPGKGLEWVSLISGRDGSTYYADSVKGRFTISRDISRNTLYLHLNSLRAEDTAVYYCAKDTAVVPGYGLDVWGQGTTVTVSS VL: DIQMTQSPATLSASVGDRVTITCRASQTISNWLAWYQQRPGKAPKLLIYKASSLETGVPSRFSGSGSGTEFTLTISSLQPDDFASYYCQQYNSYSWTFGQGTKVEIK please.
Outgoing: 23

Incoming: Determine from records and report FLIPR Dose Curve, pH 5.0 % Block for H1M6718N (antibody, mouse IgG1, V domains shown) VH: EVQLLESGGGLVQPGGSLRLSCAASGFTFSSFAMSWVRQAPGKGLEWVSGISGSGGGTHYADSVKGRFTISRDNSKNMVYLQMNSLRAEDTAAYYCAKEAYKWQPWGQGTLVTVSS VL: DIQMTQSPSTLSASVGDRVIITCRASQRISSWLAWYQQKPGKAPNLLIYKASILESGVPSRFSGSGSGTEFTLTISSLQPDDFATYYCQQYNSYSYTFGQGTKLEIK
Outgoing: 48

Incoming: Give a short answer stating reported FLIPR Dose Curve, pH 5.0 % Block for H3M6760N (antibody, V domains shown, Chimeric: human variable, mouse constant domains; H3M prefix marks the Fc, isotype not spelled out) VH: EDRVLESGGGLVQPGGSLRLSCAASGFMFSSYAMSWVRQAPGKGLEWVSLISGRDGNTYYADSVKGRFTISRDNSRNTLYLQLNSLRAEDTAVYYCAKDTAVVPGYGMDVWGQGTTVTVSS VL: DIQMTQSPSTLSASVGDRVTITCRASQSISNWLAWYQQRPGKAPKLLIYKASSLESGVPSRFSGSGSGTEFTLTISSLQPDDFASYYCQQYNSYSWTFGQGTKVEIK .
Outgoing: 56

Query binder follows.
Incoming: Annotate the binder H3M6715N (antibody, V domains shown, Chimeric: human variable, mouse constant domains; H3M prefix marks the Fc, isotype not spelled out) VH: EELVLESGGGLVQPGGSLRLSCAASGFMFSTYAMSWVRQAPGKGLEWVSLISGRDGNTYYADSVKGRFTISRDNSRNTLYLQLNSLRAEDTALYYCAKDTAVVPGYGMDVWGQGTTVTVSS VL: DIQMTQSPATLSASVGDRVTITCRASQTISNWLAWYQQRPGKAPKLLIYKASSLETGVPSRFSGSGSGTEFTLTISSLQPDDFASYYCQQYNSYSWTFGQGTKVEIK with its measured FLIPR Dose Curve, pH 5.0 % Block.
Outgoing: 10

Values from patent US20140056907A1
